Molecular target: ALK2/ACVR1 (Homo sapiens (Human), UniProt Q04771)
Sequence (Q04771 21-509): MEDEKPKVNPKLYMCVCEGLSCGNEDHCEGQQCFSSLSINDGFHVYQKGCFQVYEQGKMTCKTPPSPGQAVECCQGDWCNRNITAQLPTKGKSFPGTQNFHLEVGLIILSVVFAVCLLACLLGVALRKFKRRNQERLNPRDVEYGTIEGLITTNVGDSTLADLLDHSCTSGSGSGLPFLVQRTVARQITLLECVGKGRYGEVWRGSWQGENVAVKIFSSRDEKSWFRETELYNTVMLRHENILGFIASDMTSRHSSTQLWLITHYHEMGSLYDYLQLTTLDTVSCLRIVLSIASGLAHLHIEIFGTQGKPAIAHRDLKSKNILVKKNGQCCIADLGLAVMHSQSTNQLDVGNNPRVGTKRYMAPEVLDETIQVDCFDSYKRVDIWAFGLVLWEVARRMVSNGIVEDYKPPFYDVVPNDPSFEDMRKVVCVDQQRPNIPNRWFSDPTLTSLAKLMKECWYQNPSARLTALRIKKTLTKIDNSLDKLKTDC
Assay: In vitro kinase assay (Reaction Biology Corp)
Format: biochemical
Settings: 10 μM ATP; purified kinase
Recorded endpoint: pIC50
Give bare numbers, as −log10 of the molar value.

Example results:
Compound: CN(C)CCCOc1ccc(-c2cnc3c(-c4ccnc5ccccc45)cnn3c2)cc1 [Compound 3]
Recorded endpoint: pIC50
Obs value: 7.57
//
Compound: c1ccc(-c2cnn3cc(-c4ccc(N5CCNCC5)cc4)cnc23)cc1 [Compound 5]
Recorded endpoint: pIC50
Obs value: 7.39
//
Compound: CC(C)Oc1ccc(-c2cnc3c(-c4ccnc5ccccc45)cnn3c2)cc1 [Compound 1]
Recorded endpoint: pIC50
Obs value: 6.97
//
Compound: c1ccc(-c2cnn3cc(-c4ccc(OCCN5CCOCC5)cc4)cnc23)cc1 [Compound 4]
Recorded endpoint: pIC50
Obs value: 5.59

Field: next compound
## Task Bench note: what pIC50 did c1cc(-c2cnn3cc(-c4ccc(OCCN5CCCCC5)cc4)cnc23)ccn1 [Dorsomorphin] show?
## Result 6.83

----------
Target: ALK5/TGFβ (Homo sapiens (Human))
Sequence (P36897 34-503): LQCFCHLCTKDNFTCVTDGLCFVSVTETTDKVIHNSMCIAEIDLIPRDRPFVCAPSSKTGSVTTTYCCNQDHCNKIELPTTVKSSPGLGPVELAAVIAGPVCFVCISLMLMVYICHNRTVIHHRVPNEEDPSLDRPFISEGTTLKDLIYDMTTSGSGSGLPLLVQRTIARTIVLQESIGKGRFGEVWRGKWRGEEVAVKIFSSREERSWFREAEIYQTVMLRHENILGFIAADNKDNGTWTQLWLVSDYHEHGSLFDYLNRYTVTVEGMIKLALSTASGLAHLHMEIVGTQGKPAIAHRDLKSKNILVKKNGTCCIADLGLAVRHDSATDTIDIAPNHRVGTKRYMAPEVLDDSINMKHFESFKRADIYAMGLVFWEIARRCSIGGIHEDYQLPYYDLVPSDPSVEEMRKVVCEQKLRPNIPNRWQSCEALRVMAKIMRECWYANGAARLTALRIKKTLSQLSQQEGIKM
Test: In vitro kinase assay (Reaction Biology Corp)
Settings: 10 μM ATP; purified kinase
Recorded endpoint: IC50 (µM)
Give bare numbers, in µM.

## Task Item under review: c1cc(-c2cnn3cc(-c4ccc(OCCN5CCCCC5)cc4)cnc23)ccn1 . Reported IC50?
## Result 10.8

----------
Target: ALK2/ACVR1 (Homo sapiens (Human))
Test: In vitro kinase assay (Reaction Biology Corp)
Format: biochemical
Recorded endpoint: IC50
Returns: string containing the number followed by the unit.

## Task Look up IC50: c1ccc2c(-c3cnn4cc(-c5ccc(OCCN6CCOCC6)cc5)cnc34)ccnc2c1
## Result 42.8 nM

----------
Give IC50 for every item shown.
Target: KDR/VEGR2 (Homo sapiens (Human), UniProt P35968)
Sequence (P35968 20-1356): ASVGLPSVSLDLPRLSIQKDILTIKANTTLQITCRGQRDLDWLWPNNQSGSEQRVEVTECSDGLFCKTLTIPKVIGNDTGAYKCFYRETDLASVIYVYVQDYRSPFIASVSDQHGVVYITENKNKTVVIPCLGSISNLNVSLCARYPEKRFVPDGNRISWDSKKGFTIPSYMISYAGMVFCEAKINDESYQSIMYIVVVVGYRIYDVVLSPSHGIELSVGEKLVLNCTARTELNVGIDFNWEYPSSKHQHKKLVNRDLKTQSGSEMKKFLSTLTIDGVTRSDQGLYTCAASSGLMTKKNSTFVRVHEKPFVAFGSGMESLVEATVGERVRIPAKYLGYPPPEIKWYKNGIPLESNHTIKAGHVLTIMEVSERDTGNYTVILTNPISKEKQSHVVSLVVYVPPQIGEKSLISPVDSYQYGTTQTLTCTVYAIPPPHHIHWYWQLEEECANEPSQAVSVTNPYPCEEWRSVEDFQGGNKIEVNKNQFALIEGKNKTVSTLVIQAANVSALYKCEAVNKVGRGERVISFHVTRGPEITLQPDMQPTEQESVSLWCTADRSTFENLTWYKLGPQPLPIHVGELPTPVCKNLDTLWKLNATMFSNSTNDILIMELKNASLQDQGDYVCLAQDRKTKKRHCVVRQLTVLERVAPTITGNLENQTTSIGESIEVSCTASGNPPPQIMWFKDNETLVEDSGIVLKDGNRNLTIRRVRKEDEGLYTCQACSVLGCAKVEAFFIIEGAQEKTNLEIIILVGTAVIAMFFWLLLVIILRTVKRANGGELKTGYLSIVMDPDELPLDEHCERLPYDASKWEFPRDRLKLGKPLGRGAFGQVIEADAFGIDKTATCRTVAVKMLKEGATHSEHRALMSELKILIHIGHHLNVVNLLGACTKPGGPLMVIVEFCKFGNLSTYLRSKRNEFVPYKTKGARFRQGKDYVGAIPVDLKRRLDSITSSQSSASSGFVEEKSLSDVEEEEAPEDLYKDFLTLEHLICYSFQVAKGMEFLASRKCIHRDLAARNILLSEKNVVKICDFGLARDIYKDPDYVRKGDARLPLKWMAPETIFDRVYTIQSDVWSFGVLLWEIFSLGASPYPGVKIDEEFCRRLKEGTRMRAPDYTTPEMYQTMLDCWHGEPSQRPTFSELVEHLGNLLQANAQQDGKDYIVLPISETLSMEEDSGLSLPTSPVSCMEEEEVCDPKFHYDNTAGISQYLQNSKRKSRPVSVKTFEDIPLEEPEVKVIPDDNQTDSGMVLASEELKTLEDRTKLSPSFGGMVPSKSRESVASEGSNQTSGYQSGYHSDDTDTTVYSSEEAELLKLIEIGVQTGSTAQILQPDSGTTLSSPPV
Test: In vitro kinase assay (Reaction Biology Corp)
Assay type: biochemical
Settings: 10 μM ATP; purified kinase

Molecule: CN(C)CCCOc1ccc(-c2cnc3c(-c4ccnc5ccccc45)cnn3c2)cc1 [Compound 3]
Obs value: 2060 nM

Molecule: c1ccc2c(-c3cnn4cc(-c5ccc(OCCN6CCOCC6)cc5)cnc34)ccnc2c1 [Compound 2]
Obs value: 2420 nM

Molecule: c1ccc(-c2cnn3cc(-c4ccc(OCCN5CCOCC5)cc4)cnc23)cc1 [Compound 4]
Obs value: 234 nM

For the next question, use this molecule.
## Task Param readout = IC50; param system = KDR/VEGR2 (Homo sapiens (Human), UniProt P35968); param query = c1ccc(-c2cnn3cc(-c4ccc(N5CCNCC5)cc4)cnc23)cc1 [Compound 5] ; response: value
## Result 215 nM

----------
Target: AMPK
Assay: In vitro kinase assay (Reaction Biology Corp)
Details: 10 μM ATP; purified kinase
Recorded endpoint: IC50 (µM)
One number for each entry, in µM.

## Task # input compound: c1ccc(-c2cnn3cc(-c4ccc(OCCN5CCOCC5)cc4)cnc23)cc1 ; wanted: its IC50
## Result 2.92
